# System: Bacillus subtilis DB104 (SP-AmyQ fusion secretion)
# assayProtocol: AmyQ secretion efficiency, weighted average sort bin (1 = best secretion, 10 = worst) (bin number (weighted average, 1-10)); higher = lower secretion efficiency
Decide using AmyQ secretion efficiency: a value greater than or equal to 6 is Fulfilled, a smaller one is Not fulfilled.

# macromoleculeSequence, qualitativeLabel
rows = [
    ("MKKRRSLIMMTGLLFGLTSPAFAAEK", "Not fulfilled"),
    ("MGRIKTKITILLVLLLLLAGTYMYIN", "Fulfilled"),
    ("MRKKKRKLLLATSALTFSLSLVLPLDGHAKAQEV", "Not fulfilled"),
    ("MKRLLVSLRVWMVFLMNWVTPDRKTAAADED", "Fulfilled"),
    ("MTSLMMLSMLTVMIASLFIFSSQALAVQY", "Not fulfilled"),
    ("MRKTIFAFLTGLMMFGTITAQSASPD", "Not fulfilled"),
    ("MKKGIIRTFFLLVSFVLFFALSTGITGVQAAPA", "Not fulfilled"),
    ("MKIRKILLSSALSFGMLEDDDEDALAAGT", "Not fulfilled"),
]
